Experiment Summary: In vitro enzyme assay to detect hydrolysis of chlorophenol red-beta-D-[…] directly proportional to the number of Toxoplasma stably expressing beta-galactosidase
Assay type: functional, organism-based, Toxoplasma gondii
Design: scale not given: in the data most compounds retested in dose-response had high values
Experimental Context: 50 µM
The campaign covered roughly 85,000 compounds. About 440 (0.52%) showed an effect of 50% or more. Shown is part of a subset that was picked to be rich in strong results.
Rule: Percent Effect of 10% or more gives Satisfied; anything lower gives Not satisfied.

* O=S(=O)(c1ccc2c(c1)OCCO2)N1CCCNCC1 | Not satisfied
* COc1cccc(CO)n1 | Not satisfied
* Cc1ccc(F)cc1NC(=O)C(C)Nc1cnn(C)c1 (stereo not given) | Satisfied
* CC(CO)(CO)NC(=O)Nc1cc(Br)ccc1F | Satisfied
* CCOc1ncccc1C(=O)NCC(C)N1CCCC1 (stereo not given) | Satisfied

====

Reported Percent Effect values for the following compounds.
Experiment Summary: In vitro enzyme assay to detect hydrolysis of chlorophenol red-beta-D-[…] directly proportional to the number of Toxoplasma stably expressing beta-galactosidase
Type: functional, organism-based, Toxoplasma gondii
Design: scale not given: in the data most compounds retested in dose-response had high values
Experimental Context: 50 µM
Among all 85,000 compounds or so, about 440 (0.52%) showed an effect of 50% or more. The list comes from a sample in which strong results are over-represented; it also holds close analogues and randomly drawn compounds.
Measurement Label: Percent Effect (%)

• CCOc1ncccc1C(=O)N1CCCN(CC)CC1 = 8.353
• NCc1cc(Br)c2c(c1)OCO2 = 33.59
• O=C(NC1CCc2ccc(F)cc21)c1c[nH]nn1 (stereo not drawn) = 10.36

====

Reported Percent Effect values for the following compounds.
Experiment Summary: In vitro enzyme assay to detect hydrolysis of chlorophenol red-beta-D-[…] directly proportional to the number of Toxoplasma stably expressing beta-galactosidase
Type: functional, organism-based, Toxoplasma gondii
Parameters: scale not given: in the data most compounds retested in dose-response had high values
Experimental Context: 10 µM
Among all 85,000 compounds or so, about 440 (0.52%) showed an effect of 50% or more. The list comes from a sample in which strong results are over-represented; it also holds close analogues and randomly drawn compounds.
Measurement Label: Percent Effect (%)

- CCNC(=O)NCc1nn(CCN2CCCC2)c(=O)c2ccccc12: 21.21
- Cc1nc(-n2nc(C3CC3)cc2NC(=O)C(C)C)[nH]c(=O)c1C: 79.17
- CC(C)C(=O)Nc1cc(C(C)(C)C)nn1-c1ccccn1: -3.105
- Cc1nc(-n2nc(-c3cccs3)cc2N)[nH]c(=O)c1C: 4.893
- O=C(CCCNC(=O)C1CCCO1)Nc1ccc(Cl)cc1 (configuration not stated): 23.23
- COCCNc1nnc(-c2cnc(C)cn2)s1: -7.364
- Cc1cc(NC(=O)C(C)C)n(-c2nc(C)c(C)c(=O)[nH]2)n1: 91.77
- COCCNc1nnc(-c2ccc(C)nc2)s1: 91.21
- CCN(Cc1nonc1C)C(=O)Cn1nc(C(F)(F)F)cc1C1CC1: 53.8
- O=C(O)C(F)(F)F.O=C([C@H]1CN(Cc2ccc(F)cc2)C[C@H]2OCC[C@@H]12)N1CCCO1: 0.4926
- CC(C(=O)Nc1sccc1C(N)=O)N(C)CCOc1ccccc1 (configuration not stated): 66.89
- COCC(=O)NCc1nn(CCN2CCCC2)c(=O)c2ccccc12: 94.96
- Cc1cc(C2CCCN(CC(=O)Nc3nc4c(s3)CCC4)C2)n[nH]1 (configuration not stated): 56.52
- CN(C)CC1CN(Cc2nc(-c3cccnc3)no2)CCO1 (configuration not stated): 12.35
- Cc1ccccc1OCCC(=O)OC(C)C(=O)Nc1sccc1C(N)=O (configuration not stated): -4.306
- CCOC(=O)NCc1nn(CCN2CCCC2)c(=O)c2ccccc12: 7.365
- O=C([C@@H]1CCO[C@@H]2CCN(CC3CC3)C[C@H]21)N1CCCCO1: 96.45
